Counter-ions that a name gives are not always drawn.
ATTRIBUTE_MEASURED: melting point (°C)
Numbers only; they are read as °C.

compound=C/C(=C\c1ccccc1)CN1CCC(Nc2nccn(CCCN(C)C)c2=O)CC1 attribute_measured="melting point" observed=254
compound=C/C(=C\c1ccccc1)CN1CCC(Nc2nccn(Cc3ccc(CNS(=O)(=O)c4ccccc4)cc3)c2=O)CC1 attribute_measured="melting point" observed=128
compound="C/C(=C\\c1ccccc1)CN1CCC(Nc2nccn(CCCNCc3ccccc3)c2=O)CC1 (as salt: HCl)" attribute_measured="melting point" observed=270

Quick one: melting point for C/C(=C\c1ccccc1)CN1CCC(Nc2nccn(CC#CCN3C(=O)c4ccccc4C3=O)c2=O)CC1 (as salt: trifluoroacetate) ?
67

###

- TARGET_UNDER_TEST: hα2A receptor (Homo sapiens, UniProt P08913)
- Construct: expressed in transfected cells; host or cells: CHO cells, stably transfected; membrane preparation
- PROTOCOL_DETAILS: Radioligand binding experiment for α2A-adrenoceptor ([3H]raulwolscine, CHO cell membranes)
- RUN_PARAMETERS: [3H]raulwolscine binding, read-out: h-α2A pIC50 (converted)
ATTRIBUTE_MEASURED: IC50 (nM)
Answer format: numeric, nM implied, no suffix.

Take a look at these entries with their results.
compound="C/C(=C\\c1ccccc1)CN1CCC(Nc2nccn(-c3ccncc3)c2=O)CC1 [6-12]" observed=50.1
compound="C/C(=C\\c1ccccc1)CN1CCC(Nc2nccn(-c3ccc(F)cc3)c2=O)CC1 [5-2]" observed=31.6
compound="C/C(=C\\c1ccccc1)CN1CCC(N(C)c2nccn(CCCO)c2=O)CC1 [15-4]" observed=63.1
compound="CNCCCn1ccnc(NC2CCN(C/C(C)=C/c3ccccc3)CC2)c1=O [1-8]" observed=50.1
compound="CCN(Cc1ccncc1)C(=O)Cn1ccnc(NC2CCN(C/C(C)=C/c3ccccc3)CC2)c1=O [1-142]" observed=158
compound="C/C(=C\\c1ccccc1)CN1CCC(Nc2nccn(CC(=O)N(C)c3ccccc3)c2=O)CC1 [1-41]" observed=100

Sample C/C(=C\c1ccccc1)CN1CCC(Nc2nccn(CC(=O)NCc3ccccc3)c2=O)CC1 [1-48] — what was its IC50?
126

Look up IC50 for this compound: CCCC(=O)NCc1ccc(Cn2ccnc(NC3CCN(C/C(C)=C/c4ccccc4)CC3)c2=O)cc1 [1-31]
200

Suppose we examine the compound C/C(=C\c1ccccc1)CN1CCC(Nc2nccn(CC(=O)NCC(c3ccccc3)c3ccccc3)c2=O)CC1 [1-68] ; what IC50 value has been reported?
158

###

log10 IC50 reference
- TARGET_UNDER_TEST: hα2A receptor (Homo sapiens, UniProt P08913)
- Construct: expressed in transfected cells; host or cells: CHO cells, stably transfected; membrane preparation
- Sequence (P08913 1-465): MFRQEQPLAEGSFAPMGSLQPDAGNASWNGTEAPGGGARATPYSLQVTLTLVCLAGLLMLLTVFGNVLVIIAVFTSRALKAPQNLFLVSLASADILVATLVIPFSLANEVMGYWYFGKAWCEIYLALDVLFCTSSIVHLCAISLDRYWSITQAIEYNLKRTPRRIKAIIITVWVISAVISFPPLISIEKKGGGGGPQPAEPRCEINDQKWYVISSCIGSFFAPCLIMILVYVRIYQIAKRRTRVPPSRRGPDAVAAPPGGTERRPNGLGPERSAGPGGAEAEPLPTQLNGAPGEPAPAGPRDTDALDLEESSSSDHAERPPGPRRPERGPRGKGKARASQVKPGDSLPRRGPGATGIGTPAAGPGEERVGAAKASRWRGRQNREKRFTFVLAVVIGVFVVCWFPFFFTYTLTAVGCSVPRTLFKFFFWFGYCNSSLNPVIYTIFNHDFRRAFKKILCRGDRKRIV
- PROTOCOL_DETAILS: Radioligand binding experiment for α2A-adrenoceptor ([3H]raulwolscine, CHO cell membranes)
- RUN_PARAMETERS: [3H]raulwolscine binding, read-out: h-α2A pIC50 (converted)
- Method: The interaction of a compound of Formula (I) with α2-adrenoceptor receptors was assessed in in vitro radioligand binding experiments. […] When equilibrium of binding is reached, the receptor bound radioactivity is separated from the non-bound radioactivity, and the receptor- or transporter-bound activity is counted. The interaction of the test compounds with the receptor is assessed in competition binding experiments. […]
A difference of one corresponds to tenfold IC50; all values are log10 with IC50 in nM.

Please review the following examples before continuing.
smiles_entry=C/C(=C\c1ccccc1)CN1CCC(Nc2nccn(CCCN(C(=O)Nc3ccccc3)c3ccccc3)c2=O)CC1 target_under_test="hα2A receptor (Homo sapiens, UniProt P08913)" attribute_measured="log10 IC50" observed=2.00
smiles_entry=C/C(=C\c1ccccc1)CN1CCC(Nc2nccn(-c3cccc(N4CCC(N5CCCC5)CC4)c3)c2=O)CC1 target_under_test="hα2A receptor (Homo sapiens, UniProt P08913)" attribute_measured="log10 IC50" observed=1.10

# get_value(readout='log10 IC50', item= C/C(=C\c1ccccc1)CN1CCC(Nc2nccn(CC(=O)NCCCc3ccccc3)c2=O)CC1 )
1.90

Can you share its log10 IC50? I mean this molecule: C/C(=C\c1ccccc1)CN1CCN(c2nccn(CCN3CCOCC3)c2=O)CC1
3.00

Fill blank: measured log10 IC50 of the molecule C/C(=C\c1ccccc1)CN1CCC(Nc2nccn(CCCN(Cc3ccccc3)C(=O)CC3CCCC3)c2=O)CC1 is ____.
2.20

# get_value(readout='log10 IC50', item= C/C(=C\c1ccccc1)CN1CCC(Nc2nccn(-c3ccc(CN4CCCCC4)cc3)c2=O)CC1 )
1.50
